Tested on: CCRIS mutagenicity, Ames/micronucleus/aberration tests
Test: CCRIS mutagenicity studies
Details: End Point: IN VITRO CHROMOSOMAL ABERRATIONS; Test System: CHO CELLS; Metabolic Activation: NONE
Activity calls are given as the source filed them. No rule for the calls is given here.
Allowed answers: active, inactive

Completed entries (count: 5):
| Molecule | Measured Target | Class |
| --- | --- | --- |
| CC[C@H]1OC(=O)[C@H](C)[C@@H](O[C@H]2C[C@@](C)(OC)[C@@H](O)[C@H](C)O2)[C@H](C)[C@@H](O[C@@H]2O[C@H](C)C[C@H](N(C)C)[C@H]2O)[C@](C)(O)C[C@@H](C)C(=O)[C@H](C)[C@@H](O)[C@]1(C)O | CCRIS mutagenicity, Ames/micronucleus/aberration tests | inactive |
| Cl/C=C/CCl | CCRIS mutagenicity, Ames/micronucleus/aberration tests | inactive |
| ClCCl | CCRIS mutagenicity, Ames/micronucleus/aberration tests | inactive |
| CC(C)=CCl | CCRIS mutagenicity, Ames/micronucleus/aberration tests | inactive |
| CC1(C)S[C@@H]2[C@H](NC(=O)[C@H](N)c3ccccc3)C(=O)N2[C@H]1C(=O)O | CCRIS mutagenicity, Ames/micronucleus/aberration tests | inactive |

Ask | Call for entry CC(=O)OCC(O)CO (configuration not stated) :
Reply | inactive

Ask | Name the outcome recorded for `O=C1NC(=O)C(O)(O)C(=O)N1` in the assay.
Reply | inactive

Ask | Can you look up the reported call for `C[C@]12CC[C@@H]3c4ccc(O)cc4CC[C@H]3[C@@H]1CC[C@@H]2O` for me?
Reply | active

Ask | Record lookup: outcome of this test for `Clc1ccccc1` ?
Reply | inactive

Ask | What classification did `CN(C)N=O` end up with in this test?
Reply | inactive

Ask | Hi team, can someone confirm the assay call for `NC(N)=NC(N)=NCCc1ccccc1` ?
Reply | inactive

Ask | Write down the call the test reported for this molecule. Item: `OC[C@@H](O)[C@@H](O)[C@H](O)[C@H](O)CO`
Reply | inactive

* * *

Test system: CCRIS mutagenicity, Ames/micronucleus/aberration tests
Assay: CCRIS mutagenicity studies
Settings: Test System: AMES SALMONELLA TYPHIMURIUM; Strain/Indicator: TA98; Metabolic Activation: NONE; Method: STANDARD PLATE
Calls of active or inactive are those of the source. No rule for the calls is given here.
Permitted responses: active, inactive

Take a look at these entries with their results.
| Compound | Class |
| --- | --- |
| Nc1ccc(N=Nc2ccc(N)cc2)cc1 | inactive |
| [Pt+2].[S-]CCCCl.[S-]CCCCl | inactive |
| O=C1OCCN1N=Cc1ccc([N+](=O)[O-])o1 | active |

Ask | Tell me the assay call for `COc1cc(O)c2c(=O)c(O)c(-c3ccc(O)c(O)c3)oc2c1` please.
Reply | inactive

Ask | Which outcome was assigned to `CN(C)c1ccc([C@H]2C[C@@]3(C)[C@@H](CC[C@@]3(O)/C=C\CO)[C@@H]3CCC4=CC(=O)CCC4=C32)cc1` in this test?
Reply | inactive

Ask | Check the results log: what was the call for `O=[N+]([O-])c1ccc2c3c(cccc13)-c1cc(O)ccc1-2` ?
Reply | active

Ask | Just curious, what result did `O=C(O)c1ccc(O)cc1` get here?
Reply | inactive

Ask | I would be grateful if you could indicate the recorded call for `Cn1c(N=[N+]=[N-])nc2ccc3ncccc3c21` .
Reply | active

Ask | Identify the outcome logged in this assay for the compound shown: `Cc1nc2c(c3[nH]c4ccccc4c13)C(=O)C=C(N1CC1)C2=O`
Reply | active

* * *

Tested on: CCRIS mutagenicity, Ames/micronucleus/aberration tests
Experiment: CCRIS mutagenicity studies
Details: Test System: AMES SALMONELLA TYPHIMURIUM; Strain/Indicator: TA100; Metabolic Activation: HAMSTER, LIVER, S-9, AROCLOR 1254 (30%); Method: PREINCUBATION
The source made the active and inactive calls. No rule for the calls is given here.
Property Name: mutagenic call

| Molecule Smiles | mutagenic call |
| --- | --- |
| CCN(Cc1cccc(S(=O)(=O)[O-])c1)c1ccc(C(=C2C=CC(=[N+](C)C)C=C2)c2ccc(N(CC)Cc3cccc(S(=O)(=O)O)c3)cc2)cc1 | inactive; negative |
| CC(=O)OCCC(C)C | inactive; negative |
| C=C1C/C(=C/C)C(=O)O[C@@H]2CCN3CC=C(COC(=O)[C@@]1(O)CO)[C@H]23 | active; positive |
| CCC(C)(C)C | inactive; negative |

Ask | Would you kindly share the measured mutagenic call for `O=C(O)CN(CCN(CC(=O)O)CC(=O)O)CC(=O)O` ?
Reply | inactive; negative

Ask | Entry `O=C(O)c1cccc(Cl)c1` : reported mutagenic call = ?
Reply | inactive; negative

Ask | Param item = `CCCCCCCCn1sccc1=O` ; retrieve measured mutagenic call.
Reply | inactive; negative

Ask | Any idea what mutagenic call was measured for `Clc1ccc(C(Cl)(Cl)Cl)c(Cl)c1` ?
Reply | active; positive

Ask | Any idea what mutagenic call was measured for `CCCN(CCC)C(=O)SCC` ?
Reply | inactive; negative

Ask | For the compound shown here, `N#C/C(N)=C(/N)C#N` , give the reported mutagenic call.
Reply | inactive; negative

* * *

Tested on: CCRIS mutagenicity, Ames/micronucleus/aberration tests
Test: CCRIS mutagenicity studies
Settings: Test System: AMES SALMONELLA TYPHIMURIUM; Strain/Indicator: TA98; Metabolic Activation: S-9; Method: STANDARD PLATE
Activity calls are given as the source filed them. The rule behind the calls is not given here.
Property Name: mutagenic call

See these solved cases before continuing.
| Molecule Smiles | Property Name | Recorded Value |
| --- | --- | --- |
| ONc1ccc2ccccc2c1 | mutagenic call | active; positive |
| OCc1ccco1 | mutagenic call | inactive; negative |
| CCCCC[C@@](C)(O)/C=C/[C@H]1[C@H](O)CC(=O)[C@@H]1C/C=C\CCCC(=O)O | mutagenic call | inactive; negative |
| COc1cc(Oc2ccc(Cl)cc2Cl)ccc1N | mutagenic call | inactive; negative |
| COc1ccc(O)cc1 | mutagenic call | inactive; negative |
| Nc1ccc(-c2ccc(N)c([N+](=O)[O-])c2)cc1[N+](=O)[O-] | mutagenic call | active; positive |

Ask | # lookup: mutagenic call of `CC(C)(C)c1cc(Cc2cc(C(C)(C)C)c(O)c(C(C)(C)C)c2)cc(C(C)(C)C)c1O`
Reply | inactive; negative

* * *

Test system: CCRIS mutagenicity, Ames/micronucleus/aberration tests
Experiment: CCRIS mutagenicity studies
Details: Test System: AMES SALMONELLA TYPHIMURIUM; Strain/Indicator: YG1024; Metabolic Activation: NONE; Method: STANDARD PLATE
Active and inactive are the calls of the source. How the calls were made is not given here.
Can you answer with just one of these options? active, inactive

// known answers, use as guide
| Molecule Smiles | Class |
| --- | --- |
| O=[N+]([O-])c1ccc2c(c1)cc([N+](=O)[O-])c1ccccc12 | active |
| O=[N+]([O-])c1ccc2ccc3c([N+](=O)[O-])cccc3c2c1 | active |

Ask | What was the test verdict on `O=[N+]([O-])c1cc2ccccc2c2ccccc12` ?
Reply | active

Ask | Which result was noted for this compound in the test: `O=[N+]([O-])c1ccc2ccc3ccc([N+](=O)[O-])cc3c2c1`
Reply | active

Ask | How did this test come out for `O=[N+]([O-])c1cc(O)c2ccc3cccc4ccc1c2c34` ?
Reply | active

Ask | Could you please tell me the result logged for `O=NO` in this assay?
Reply | inactive

Ask | What was the test verdict on `O=[N+]([O-])c1cc2ccccc2c2c([N+](=O)[O-])cccc12` ?
Reply | active

* * *

Test system: CCRIS mutagenicity, Ames/micronucleus/aberration tests
Test: CCRIS mutagenicity studies
Settings: Test System: AMES SALMONELLA TYPHIMURIUM; Strain/Indicator: TA100; Metabolic Activation: HAMSTER, LIVER, S-9, AROCLOR 1254; Method: STANDARD PLATE
Excerpt: The CCRIS database contains chemical records with carcinogenicity, mutagenicity, tumor promotion, and tumor inhibition test results. It was developed by the National Cancer Institute (NCI). Data are derived from studies cited in primary journals, current awareness tools, NCI reports, and other sources. Test results have been reviewed by experts in carcinogenesis and mutagenesis. CCRIS provides historical information from the years 1985 - 2011. It is no longer updated. […]
Activity calls are given as the source filed them. No rule for the calls is given here.
Parameter call: string, one of true (1) for active, false (0) for inactive

| Compound | Class |
| --- | --- |
| O=CC(O)C(O)C(O)C(O)COC1OC(COC2OC(CO)C(O)C(O)C2O)C(O)C(O)C1O (stereo not given) | false (0) |
| O=Cc1ccccc1[N+](=O)[O-] | false (0) |
| C/C=N/O | false (0) |
| C1CCC2CCCCC2C1 (stereo not given) | false (0) |
| CCCON=O | true (1) |
| O=C(O)O | false (0) |
| Fc1ccccc1-c1ccccc1 | false (0) |
| COc1cc2c(c(OC)c1OC)-c1ccc(OC)c(=O)cc1[C@@H](NC(C)=O)CC2 | false (0) |

Note: attention shifts to another entry.
Ask | Name the outcome recorded for `Cl/C=C/CCl` in the assay.
Reply | true (1)
